Recorded values, source patent US20260167623A1.

For each entry below, report its pIC50 value.
Target: CDK2 (Homo sapiens)
Construct: High-Throughput Measurement of Cellular Endogenous CDK2; endogenous in cells
Assay: Inhibition of CDK2: phospho-Rb (S807/811) HTRF measurement in OVCAR3 cells, 24 h
Settings: 24 h compound treatment, read-out: pRB_OVCAR3_24h
Procedure: Inhibition of CDK2: Phospho-R^b Measurement in Cells Phosphorylation of RB protein at S807/811 were measured using HTRF phospho-RB cellular kits (Cat #64RBS807PEG) from Cisbio. On Day 1, OVCAR3 (CDK2 dependent cell line) cells were seeded into 96-well tissue-culture treated plates at 20,000 cells/well in 200 μL and incubated overnight at 37° C. in CO2 atmosphere. […] Detection plates were incubated for 4 h at room temperature and read on ClarioStar (BMG Labtech) in TR-FRET mode (665 nM and 620 nM). […]
pIC50: −log10 of the molar value.

1) Cn1nc(N2CCC(=O)NC2=O)c2ccc(C3CCN(CC4CCN(c5cccc(S(=O)(=O)c6ccc(Nc7ncc(C(F)(F)F)cn7)cc6)c5)CC4)CC3)cc21 | < 5.60
2) Cn1nc(N2CCC(=O)NC2=O)c2ccc(N3CC4CCC(C3)N4CC3CCN(c4cccc(S(=O)(=O)N5CCC(Nc6ncc(Cl)cn6)CC5)c4)CC3)cc21 | 6.30 to 7.00
3) O=C1CCC(Nc2ccc(N3CCN(Cc4cccc(S(=O)(=O)N5CCC(Nc6ncc(C(F)(F)F)cn6)CC5)c4)CC3)cc2)C(=O)N1 (stereo not drawn) | 6.30 to 7.00
4) Cn1nc(N2CCC(=O)NC2=O)c2ccc(C3CCN(Cc4cccc(S(=O)(=O)N5CCC(Nc6ncc(Br)cn6)CC5)c4)CC3)cc21 | 6.30 to 7.00
5) Cn1nc(N2CCC(=O)NC2=O)c2ccc(C3CN(Cc4cccc(S(=O)(=O)N5CCC(Nc6ncc(Cl)cn6)CC5)c4)C3)cc21 | 5.60 to 6.30

Hi there! I need pIC50 for each item below, if you can.
1. CN(Cc1cccc(S(=O)(=O)N2CCC(Nc3ncc(C(F)(F)F)cn3)CC2)c1)CC1CCN(c2ccc3c(N4CCC(=O)NC4=O)nn(C)c3c2)CC1
2. Cn1nc(N2CCC(=O)NC2=O)c2ccc(C3CCN(CC4CCN(c5cccc(S(=O)(=O)N6CCC(Nc7ncc(C(F)(F)F)cn7)CC6)c5)CC4)CC3)c(F)c21
3. Cn1c(S(=O)(=O)N2CCC(Nc3ncc(C(F)(F)F)cn3)CC2)cnc1CN1CCC(c2ccc3c(N4CCC(=O)NC4=O)nn(C)c3c2)CC1
4. Cn1nc(N2CCC(=O)NC2=O)c2cc(F)c(C3CCN(CC4CCN(c5cccc(S(=O)(=O)N6CCC(Nc7ncc(Cl)cn7)CC6)c5)CC4)CC3)cc21
5. Cn1c(=O)n(C2CCC(=O)NC2=O)c2cccc(C3CCN(CC4CCN(c5cc(C(F)(F)F)cc(S(=O)(=O)N6CCC(Nc7ncc(OC(F)F)cn7)CC6)c5)CC4)CC3)c21 (stereo not drawn)
6. O=C1CCN(c2cnc3c(C4CCN(CC5CCN(c6cccc(S(=O)(=O)N7CCC(Nc8ncc(Cl)cn8)CC7)c6)CC5)CC4)cccn23)C(=O)N1

[out]
1: 5.60 to 6.30; 2: 7.00 to 9.00; 3: 7.00 to 9.00; 4: 7.00 to 9.00; 5: 5.60 to 6.30; 6: 6.30 to 7.00

[in] Would you mind telling me what pIC50 value was observed for Cn1nc(N2CCC(=O)NC2=O)c2ccc(CN3CCN(c4cccc(S(=O)(=O)N5CCC(Nc6ncc(C(F)(F)F)cn6)CC5)c4)CC3)cc21 ?
[out] 5.60 to 6.30

---

Provide the reported pIC50 of each item.
biological target: CDK2 (Homo sapiens, UniProt P24941); construct: High-Throughput Measurement of Cellular Endogenous CDK2; endogenous in cells; assay: Inhibition of CDK2: phospho-Rb (S807/811) HTRF measurement in OVCAR3 cells, 24 h; conditions: 24 h compound treatment, read-out: pRB_OVCAR3_24h
pIC50: −log10 of the molar value.

1) O=C1CCN(c2ccc(N3CCN(Cc4cccc(S(=O)(=O)N5CCC(Nc6ncc(C(F)(F)F)cn6)CC5)c4)CC3)cc2)C(=O)N1 | 5.60 to 6.30

Give pIC50 for each of the items listed below.
1. Cn1nc(N2CCC(=O)NC2=O)c2cc(F)c(C3CCN(Cc4cccc(S(=O)(=O)N5CCC(Nc6ncc(OC(F)F)cn6)CC5)c4)CC3)cc21
2. Cn1nc(N2CCC(=O)NC2=O)c2ccc(N3CCC(CN4C5CCC4CN(c4cccc(S(=O)(=O)N6CCC(Nc7ncc(Cl)cn7)CC6)c4)C5)CC3)cc21
3. Cn1nc(N2CCC(=O)NC2=O)c2ccc(C3CCN(CC4CCN(c5cc(F)cc(S(=O)(=O)N6CCC(Nc7ncc(Cl)cn7)CC6)c5)CC4)CC3)cc21
4. Cn1nc(N2CCC(=O)NC2=O)c2ccc(C3CCN(CC4CCN(c5cccc(S(=O)(=O)N6CCC(Nc7ncc(Cl)cn7)CC6)c5)CC4)CC3)c(F)c21
5. Cn1nc(N2CCC(=O)NC2=O)c2ccc(C3CCN(CCC4CCCN(S(=O)(=O)N5CCC(Nc6ncc(C(F)(F)F)cn6)CC5)C4)CC3)cc21 (stereo not drawn)
6. Cn1nc(N2CCC(=O)NC2=O)c2ccc(C3CCN(Cc4ccc(C5CCN(S(=O)(=O)N6CCC(Nc7ncc(Cl)cn7)CC6)CC5)cc4)CC3)cc21
7. O=C1CCC(N2Cc3cc(N4CCC(N5CC(Oc6cccc(S(=O)(=O)N7CCC(Nc8ncc(Cl)cn8)CC7)c6)C5)CC4)ccc3C2=O)C(=O)N1 (stereo not drawn)
8. Cn1nc(N2CCC(=O)NC2=O)c2ccc(C3CCN(CC4CCN(c5cccc(S(=O)(=O)N6CC7(CC(Nc8ncc(C(F)(F)F)cn8)C7)C6)c5)CC4)CC3)cc21

[out]
7.00 to 9.00
< 5.60
7.00 to 9.00
7.00 to 9.00
5.60 to 6.30
< 5.60
6.30 to 7.00
< 5.60

For each of the items listed, what is its pIC50?
1. CC(c1cccc(S(=O)(=O)N2CCC(Nc3ncc(Cl)cn3)CC2)c1)N1CCC(c2ccc3c(N4CCC(=O)NC4=O)nn(C)c3c2)CC1 (stereo not drawn)
2. O=C1CCC(N2C(=O)c3cc(F)c(N4CCN(CC5CCN(c6cccc(S(=O)(=O)N7CCC(Nc8ncc(Cl)cn8)CC7)c6)CC5)CC4)cc3C2=O)C(=O)N1 (stereo not drawn)

[out]
1: 6.30 to 7.00; 2: 5.60 to 6.30

[in] Value lookup for pIC50; key = O=C1CCN(c2noc3cc(C4CCN(CC5CCN(c6cccc(S(=O)(=O)N7CCC(Nc8ncc(Cl)cn8)CC7)c6)CC5)CC4)ccc23)C(=O)N1
[out] 7.00 to 9.00

---

biological target: CDK2 (Homo sapiens, UniProt P24941); construct: High-Throughput Measurement of Cellular Endogenous CDK2; endogenous in cells; test: Inhibition of CDK2: phospho-Rb (S807/811) HTRF measurement in OVCAR3 cells, 24 h; conditions: 24 h compound treatment, read-out: pRB_OVCAR3_24h
So I've got a bunch of compounds here, and I need their IC50 values.

Solved entries:
1. Cn1nc(N2CCC(=O)NC2=O)c2ccc(C3CCN(CC4CCN(c5cccc(S(=O)(=O)N6CCC(Nc7ncc(OC8CC8)cn7)CC6)c5)CC4)CC3)cc21 [Example 252] | 100 to 500 nM
2. Cn1nc(N2CCC(=O)NC2=O)c2ccc(C3CN(Cc4cccc(S(=O)(=O)N5CCC(Nc6ncc(C(F)(F)F)cn6)CC5)c4)C3)cc21 [Example 49] | 500 to 2500 nM
3. Cn1nc(N2CCC(=O)NC2=O)c2ccc(C3CCN(CC4CCN(c5cccc(S(=O)(=O)N6CC7CCC(C6)C7Nc6ncc(Cl)cn6)c5)CC4)CC3)cc21 (racemic) [Example 229] | > 2500 nM
4. Cn1nc(N2CCC(=O)NC2=O)c2ccc(C3CN(Cc4cccc(S(=O)(=O)N5CCC(Nc6ncc(OC(F)F)cn6)CC5)c4)C3)cc21 [Example 81] | 500 to 2500 nM
5. O=C1CCN(c2nn(CC(F)(F)F)c3cc(C4CCN(Cc5cccc(S(=O)(=O)N6CCC(Nc7ncc(C(F)(F)F)cn7)CC6)c5)CC4)ccc23)C(=O)N1 [Example 5] | 100 to 500 nM

With those in mind, consider the next compound.
[in] Consider the compound shown here: Cn1nc(N2CCC(=O)NC2=O)c2cccc(C3CCN(CC4CCN(c5cccc(S(=O)(=O)N6CCC(Nc7ncc(C(F)(F)F)cn7)CC6)c5)CC4)CC3)c21 [Example 145] What is its recorded IC50?
[out] 100 to 500 nM
